Reference source: patent US10752632B2

- measured target: full-length human O-GlcNAc-β-N-acetylglucosaminidase (OGA) (Homo sapiens (Human))
- Sequence (O60502 whole entry): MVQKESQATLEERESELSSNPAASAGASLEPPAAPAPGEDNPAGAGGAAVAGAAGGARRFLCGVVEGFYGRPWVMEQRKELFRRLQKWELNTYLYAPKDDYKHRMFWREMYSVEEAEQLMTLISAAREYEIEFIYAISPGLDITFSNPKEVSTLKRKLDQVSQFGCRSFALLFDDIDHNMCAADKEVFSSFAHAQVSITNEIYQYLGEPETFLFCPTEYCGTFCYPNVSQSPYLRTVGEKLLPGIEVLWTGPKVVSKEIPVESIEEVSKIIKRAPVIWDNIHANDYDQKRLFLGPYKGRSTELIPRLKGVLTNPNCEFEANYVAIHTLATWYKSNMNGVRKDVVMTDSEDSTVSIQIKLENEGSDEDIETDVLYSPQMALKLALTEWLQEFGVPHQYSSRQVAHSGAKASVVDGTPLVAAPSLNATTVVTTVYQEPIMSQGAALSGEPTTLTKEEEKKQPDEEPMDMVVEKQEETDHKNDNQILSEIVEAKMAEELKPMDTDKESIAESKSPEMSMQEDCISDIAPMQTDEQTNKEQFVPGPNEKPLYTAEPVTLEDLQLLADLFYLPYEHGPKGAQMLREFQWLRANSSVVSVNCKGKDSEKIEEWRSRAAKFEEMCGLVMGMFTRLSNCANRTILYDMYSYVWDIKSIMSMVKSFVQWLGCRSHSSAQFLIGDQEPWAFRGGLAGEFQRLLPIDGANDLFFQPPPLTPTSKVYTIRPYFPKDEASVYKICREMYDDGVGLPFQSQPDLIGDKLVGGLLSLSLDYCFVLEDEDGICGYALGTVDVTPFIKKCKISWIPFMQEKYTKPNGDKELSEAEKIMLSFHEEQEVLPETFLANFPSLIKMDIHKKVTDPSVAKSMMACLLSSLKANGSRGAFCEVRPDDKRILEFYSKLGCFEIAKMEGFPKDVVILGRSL
Friendly reminder: IC50 below 0.5 nM is fulfilled, at or above is not fulfilled.

• CC(=O)N1Cc2cnc(O[C@@H]3C[C@H](C)N(Cc4cc5nc(C)sc5cc4F)C3)cc2C1 [Example 3] = not fulfilled
• CC(=O)N1Cc2ccc(O[C@@H]3C[C@H](C)N(Cc4cc5nc(C)sc5cc4F)C3)nc2C1 [Example 2] = fulfilled
• CC(=O)N1Cc2cnc(O[C@@H]3C[C@H](C)N(Cc4cc5nc(C)sc5cc4F)C3)nc2C1 [Example 1] = fulfilled
• CC(=O)N1Cc2cc(O[C@@H]3C[C@H](C)N(Cc4cc5nc(C)sc5cc4F)C3)cnc2C1 [Example 4] = not fulfilled
• CC(=O)N1Cc2ccc(O[C@@H]3C[C@H](C)N([C@@H](C)c4cc5nc(C)sc5cc4F)C3)nc2C1 [Example 6] = fulfilled
